Each entry below carries its reported pIC50.
- experimental-system: recombinant perforin (UniProt P10820)
- Sequence (P10820 whole entry): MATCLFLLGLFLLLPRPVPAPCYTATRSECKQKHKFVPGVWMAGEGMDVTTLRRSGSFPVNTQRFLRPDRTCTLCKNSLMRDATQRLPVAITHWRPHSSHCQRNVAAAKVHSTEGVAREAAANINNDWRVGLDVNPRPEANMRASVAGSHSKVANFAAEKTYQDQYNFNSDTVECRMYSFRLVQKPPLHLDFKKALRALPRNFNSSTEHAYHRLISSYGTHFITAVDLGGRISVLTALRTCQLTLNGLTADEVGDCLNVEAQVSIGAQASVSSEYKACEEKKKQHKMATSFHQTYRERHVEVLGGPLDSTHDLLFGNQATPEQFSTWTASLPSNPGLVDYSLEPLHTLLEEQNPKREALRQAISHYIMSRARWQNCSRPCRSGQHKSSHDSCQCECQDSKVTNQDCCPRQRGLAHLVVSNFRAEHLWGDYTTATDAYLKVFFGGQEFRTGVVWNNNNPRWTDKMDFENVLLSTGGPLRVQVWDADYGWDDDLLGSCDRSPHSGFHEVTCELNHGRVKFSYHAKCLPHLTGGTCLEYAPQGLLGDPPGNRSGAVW
- Type: cell-based
- condition-details: read-out: Jurkat IC50; recombinant perforin pre-incubated 30 min with compound; 51Cr-labelled Jurkat cells, 0.1% BSA, 37° C. 4 hours
- Protocol: Inhibition of Perforin-Mediated Lysis of Jurkat Cells The ability of the compounds to inhibit the lysis of nucleated (Jurkat T lymphoma) cells in the presence of 0.1% BSA, as measured by release of ^51Cr was measured. […] The supernatant was collected and assessed for its radioactive content on a gamma counter (Wallac Wizard 1470 automatic gamma counter). Each data point was performed in triplicate and an IC50 was calculated from the range of concentrations described to above.
pIC50: −log10 of the molar value.
outcome-measure: pIC50

molecule | censoring-operator | readout-value
COc1ccc(-c2ccc(/C=C3/NC(=S)NC3=O)s2)cc1 | = | 5.05
O=C1NC(=S)N/C1=C/c1ccc(-c2ccc3c(c2)C(=O)NC3)s1 | = | 5.86
O=C1NC(=S)N/C1=C/c1ccc(-c2ccc3c(c2)CN(CC(O)CO)C3=O)s1 (centres unmarked) | = | 5.90
O=C1NC(=S)N/C1=C/c1ccc(-c2ccc3c(c2)CN(CCO)C3=O)s1 | = | 6.11
O=C1NC(=S)N/C1=C/c1ccc(-c2ccc(C(=O)NCCO)cc2)s1 | = | 5.44
CCCN1Cc2cc(-c3ccc(/C=C4/NC(=S)NC4=O)s3)ccc2C1=O | = | 5.82
CN(C)CCCN1Cc2cc(-c3ccc(/C=C4/NC(=S)NC4=O)s3)ccc2C1=O | < | 4.70
O=C1NC(=S)N/C1=C/c1ccc(-c2ccc(F)c(F)c2)s1 | = | 5.34
O=C1NC(=S)N/C1=C/c1ccc(-c2cccc(Cl)c2)s1 | = | 5.14
O=C1NC(=S)N/C1=C/c1cc2ccc(-c3ccc4c(c3)COC4=O)cc2[nH]1 | = | 5.63
CN1CCc2ccc(-c3ccc(/C=C4\NC(=S)NC4=O)s3)cc2C1=O | = | 5.32
O=C1NC(=S)N/C1=C/c1ccc(-c2ccc3c(c2)CN(CCCO)C3=O)s1 | = | 6.28
CC(=O)OCCN1Cc2cc(-c3ccc(/C=C4/NC(=S)NC4=O)s3)ccc2C1=O | = | 5.93
O=C1NC(=S)N/C1=C/c1ccc(-c2ccc(Br)cc2)s1 | = | 5.77
O=C1NC(=S)N/C1=C/c1ccc(-c2ccc(F)cc2)s1 | = | 5.17
O=C1NC(=S)N/C1=C/c1ccc(-c2ccncc2)s1 | = | 5.00
O=C1NC(=S)N/C1=C/c1ccc(-c2ccc(C(=O)NCCCO)cc2)s1 | = | 5.36
O=C1NC(=S)N/C1=C\c1cnc(-c2ccc3c(c2)COC3=O)s1 | = | 5.76
NC(=O)c1ccc(-c2ccc(/C=C3/NC(=S)NC3=O)s2)cc1 | = | 5.81
CN1Cc2ccc(-c3ccc(/C=C4/NC(=S)NC4=O)s3)cc2C1=O | = | 5.72
O=C1NC(=S)N/C1=C\c1cc(-c2ccc3c(c2)COC3=O)ns1 | = | 5.84
O=C1NC(=S)N/C1=C/c1ccc(-c2ccc3c(c2)COC3=O)[nH]1 | = | 5.61
N#Cc1cccc(-c2ccc(/C=C3/NC(=S)NC3=O)s2)c1 | = | 5.01
